Recorded EC50 cAMP, Alpha Screen for the following binders
Target: T1, human VPAC2 receptor (human, UniProt P41587 24-438)
T1 sequence (looked up): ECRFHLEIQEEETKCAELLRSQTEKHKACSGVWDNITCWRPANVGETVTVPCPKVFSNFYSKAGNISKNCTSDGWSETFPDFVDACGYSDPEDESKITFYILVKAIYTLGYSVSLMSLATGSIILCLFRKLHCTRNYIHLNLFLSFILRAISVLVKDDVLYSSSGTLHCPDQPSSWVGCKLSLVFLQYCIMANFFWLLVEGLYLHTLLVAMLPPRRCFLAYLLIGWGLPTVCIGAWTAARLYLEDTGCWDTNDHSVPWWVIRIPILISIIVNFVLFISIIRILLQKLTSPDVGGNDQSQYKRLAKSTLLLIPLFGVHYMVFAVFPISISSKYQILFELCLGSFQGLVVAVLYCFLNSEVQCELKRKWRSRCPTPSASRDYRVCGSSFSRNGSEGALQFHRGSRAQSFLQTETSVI
Assay: cell-based or functional assay
Where no end group is shown, it is not given here. [ ]: non-standard residue; d: D form. The star is where a group is joined. Hexanoyl = CCCCCC(=O)*; Aib = CC(C)(N)C(=O)O
observation-type: EC50 cAMP, Alpha Screen (pM)

{"binder": "Hexanoyl-HSDAVFTDNYTRLRKQVAAKKALQSIKNKRYGGPSSGAPPPS [P229]", "result": 2600}
{"binder": "Hexanoyl-HSDAVFTDNYTRLRKQVAAKKYTQSIKNKRYGGPSSGAPPPS [P232]", "result": 1940}
{"binder": "Hexanoyl-HSDAVFTDNYTRLA[Aib]QVAA[Aib]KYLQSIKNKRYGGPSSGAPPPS (ends and bridges not checked) [P301]", "result": 890}
{"binder": "Hexanoyl-HSDAVFTDNYTKLKKQVAAKKYLQSIKNKKYGGPSSGAPPPS [P103]", "result": 120}
{"binder": "Hexanoyl-HSDAVFTDNYTRLRKQVAAAKYLQSIKNKRYGGPSSGAPPPS [P181]", "result": 130}
{"binder": "Hexanoyl-HSDAVFTRNYTRLRKQVAAKKYLQSIKNKRYGGPSSGAPPPS [P162]", "result": 11100}
{"binder": "Hexanoyl-HSDAVFTDNYTRL[Aib]KQVAAKQYLQSIKNKRYGGPSSGAPPPS (ends and bridges not checked) [P249]", "result": 930}
{"binder": "Hexanoyl-HSDAVFTDNYTRLRAQVAAKKYLQSIKNKRYGGPSSGAPPPS [P139]", "result": 200}
{"binder": "Hexanoyl-HSDAVFTDNYTRLRKQVAAKKYLQTIKNKRYGGPSSGAPPPS [P115]", "result": 200}
{"binder": "Hexanoyl-HSDAVFTDNYTRLRKQVAAKKYLQNIKNKRYGGPSSGAPPPS [P125]", "result": 140}
{"binder": "Hexanoyl-HSDAVFTEEYTRLQKQVAAKQYLQSIKNKRYGGPSSGAPPPS [P165]", "result": 940}
